Test system: GBM culture GBM12
Test: XTT cell proliferation assay
Format: cell-based, Human
Conditions: Homo sapiens, 36 h
quantity.kind: pIC50
To interpret pIC50, take it as minus log10 of a concentration measured in moles per litre.

**Query** What value of pIC50 has been reported for the following molecule? `O=C1OCC/C=C/CC/C=C/C(=N/OCC(=O)N2CCCCC2)Cc2c(Cl)c(O)cc(O)c21`
**Result** 5.63

###

Format: in vivo, CD-1 mice
Conditions: male, CD-1, mouse, brain, iv, 70 mg/kg
quantity.kind: Tmax (min)
Lab book: enter the figure in min, no units written.

**Query** Give its Tmax value. Item: O=C1OCC/C=C/CC/C=C/C(=N/OCC(=O)N2CCCCC2)Cc2c(Cl)c(O)cc(O)c21 [NXD30001]
**Result** 30
